# subject-of-test: T1, Human CD137 ECD (human)
# T1 construct: entry includes C-terminal His-tag and biotin acceptor peptide; also called human CD137 extracellular domain; 4-1BB
# procedure-details: Biacore SPR, vs parent H183/L072
Listed binders paired with reported fold change of affinity
// return numeric value only (unit: fold, not printed)

{"binder": "H183/L072 VL N30A (antibody, name in Kabat numbering, V domains shown, Dual-Ig) VH: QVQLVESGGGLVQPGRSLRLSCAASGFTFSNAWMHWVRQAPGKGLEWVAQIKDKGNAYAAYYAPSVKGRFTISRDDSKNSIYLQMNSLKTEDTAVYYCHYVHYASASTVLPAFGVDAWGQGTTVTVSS VL: DIVMTQSPLSLPVTPGEPASISCQASQELVHMNRATYLHWYQQKPGQAPRLLIYKVSNRFPGVPDRFSGSGSGTDFTLKISRVEAEDVGVYYCAQGTSVPFTFGQGTKLEIK", "property-label": "fold change of affinity", "numeric-result": 0.7}
{"binder": "H183/L072 VL S26M (antibody, name in Kabat numbering, V domains shown, Dual-Ig) VH: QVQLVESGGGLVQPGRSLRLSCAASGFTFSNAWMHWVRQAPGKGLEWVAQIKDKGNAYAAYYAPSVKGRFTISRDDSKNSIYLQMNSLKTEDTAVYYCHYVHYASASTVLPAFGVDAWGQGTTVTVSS VL: DIVMTQSPLSLPVTPGEPASISCQAMQELVHMNRNTYLHWYQQKPGQAPRLLIYKVSNRFPGVPDRFSGSGSGTDFTLKISRVEAEDVGVYYCAQGTSVPFTFGQGTKLEIK", "property-label": "fold change of affinity", "numeric-result": 0.6}

# next binder below
Look up fold change of affinity of H183/L072 VL N53S (antibody, name in Kabat numbering, V domains shown, Dual-Ig) VH: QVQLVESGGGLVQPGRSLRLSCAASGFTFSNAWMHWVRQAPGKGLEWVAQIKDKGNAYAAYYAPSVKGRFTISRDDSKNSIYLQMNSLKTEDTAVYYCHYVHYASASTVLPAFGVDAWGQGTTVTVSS VL: DIVMTQSPLSLPVTPGEPASISCQASQELVHMNRNTYLHWYQQKPGQAPRLLIYKVSSRFPGVPDRFSGSGSGTDFTLKISRVEAEDVGVYYCAQGTSVPFTFGQGTKLEIK and report it.
0.5

The reported numbers originate from patent US20210388087A1.
